measuredOn: HDAC6 enzyme (Homo sapiens)
Construct: prepared by transducing full length HDAC6 gene into Sf-9 insect cells; GST; purchased SignalChem; host or cells: Sf-9 insect cells
measurementNotes: HDAC6 enzyme inhibitory assay (HDAC-Glo I/II Assay kit, luminescence)
Assay type: biochemical
runParameters: 10 μM test compound; wells without enzyme = 100% inhibition; read-out: HDAC6 inhibitory rate (%) (10 μM)
reportedMetric: inhibition at 10 µM (%)

COc1ccc(Cn2ccnc2-c2cc(-c3nnc(C(F)F)o3)ccn2)cc1 [Example 80a]; 104
Fc1cc(-c2nnc(C(F)F)o2)cc(-c2nccn2Cc2cscn2)c1 [Example 60a]; 98
Cc1nc(Cn2ccnc2-c2cc(F)cc(-c3nnc(C(F)F)o3)c2)no1 [Example 55a]; 97
O=C1c2cc(-c3nnc(C(F)F)o3)cnc2CN1N(Cc1ccc(F)cc1)CC1CCOCC1 [Example 71c]; 100
Cc1ccc(Cn2ccnc2-c2cc(-c3nnc(C(F)F)o3)ccn2)cc1 [Example 78a]; 103
CC1(COc2cccnc2-c2cc(F)cc(-c3nnc(C(F)F)o3)c2)COC1 [Example 18a]; 98
CN(C(=O)OC(C)(C)C)N1Cc2ccc(-c3nnc(C(F)F)o3)cc2C1=O [Example 38c]; 97
COCCN1C(=O)c2cc(-c3nnc(C(F)F)o3)ccc2OC1(C)c1ccc(F)cc1 (centres unmarked) [Example 52b]; 100

====

measuredOn: HDAC6 enzyme (Homo sapiens, UniProt Q9UBN7)
Construct: prepared by transducing full length HDAC6 gene into Sf-9 insect cells; GST; purchased SignalChem; host or cells: Sf-9 insect cells
measurementNotes: HDAC6 enzyme inhibitory assay (HDAC-Glo I/II Assay kit, luminescence)
Assay type: biochemical
runParameters: 10 μM test compound; wells without enzyme = 100% inhibition; read-out: HDAC6 inhibitory rate (%) (10 μM)
reportedMetric: inhibition at 10 µM (%)

Cn1ccc(OC2CCC(F)(F)CC2)c(-c2cc(-c3nnc(C(F)F)o3)ccn2)c1=O [Example 88a]; 100
CN(CC1CC(F)(F)C1)N1Cc2ccc(-c3nnc(C(F)F)o3)cc2C1=O [Example 64c]; 99
CN1C(=O)c2cc(-c3nnc(C(F)F)o3)ccc2OC1(C)c1cccc(Cl)c1 (stereo not shown) [Example 19b]; 100
O=C1c2cc(-c3nnc(C(F)F)o3)ccc2CN1N(Cc1ccc(F)cc1)Cc1ccc(F)cc1; 100

====

measuredOn: HDAC6 enzyme (Homo sapiens)
Construct: prepared by transducing full length HDAC6 gene into Sf-9 insect cells; GST; purchased SignalChem; host or cells: Sf-9 insect cells
measurementNotes: HDAC6 enzyme inhibitory assay (HDAC-Glo I/II Assay kit, luminescence)
Format: biochemical
runParameters: 10 μM test compound; wells without enzyme = 100% inhibition; read-out: HDAC6 inhibitory rate (%) (10 μM)
reportedMetric: inhibition at 10 µM (%)

Fc1ccc(Cn2ccnc2-c2cc(-c3nnc(C(F)F)o3)ccn2)nc1 [Example 76a]; 100
CC(NN1Cc2ccc(-c3nnc(C(F)F)o3)cc2C1=O)c1ccc(F)cc1 (stereo not shown) [Example 22c]; 100
O=C1NN(c2ccc(F)c(Cl)c2)Cc2ncc(-c3nnc(C(F)F)o3)cc21 [Example 35b]; 100
CN(Cc1ccc(F)cc1)N1Cc2ncc(-c3nnc(C(F)F)o3)cc2C1=O [Example 69c]; 100
Fc1cccc(Cc2ncnn2-c2cc(-c3nnc(C(F)F)o3)ccn2)c1 [Example 89a]; 97
O=C1NN(c2ccc(F)c(Cl)c2)Cc2ccc(-c3nnc(C(F)F)o3)cc21 [Example 31b]; 100
N#Cc1cccc(Cn2ccnc2-c2cc(-c3nnc(C(F)F)o3)ccn2)c1 [Example 72a]; 100
Fc1cccc(Cn2ccnc2-c2cc(F)cc(-c3nnc(C(F)F)o3)c2)c1 [Example 44a]; 99
O=C1c2cc(-c3nnc(C(F)F)o3)ccc2CN1N(Cc1ccc(F)cc1)CC1CCOCC1; 99
O=C(CC(F)(F)F)N(Cc1cnn(C2CC2)c1)N1Cc2ccc(-c3nnc(C(F)F)o3)cc2C1=O [Example 12c]; 98
O=C(OCC(F)F)N(Cc1ccc(F)cc1)N1Cc2ccc(-c3nnc(C(F)F)o3)cc2C1=O [Example 16c]; 100
N#Cc1ccc(Cn2ccnc2-c2cc(F)cc(-c3nnc(C(F)F)o3)c2)cn1 [Example 66a]; 98
CC(C)CN(C(=O)OC(C)(C)C)N1Cc2ccc(-c3nnc(C(F)F)o3)cc2C1=O; 99
C[C@@]1(c2ccc(F)cc2)Cc2ncc(-c3nnc(C(F)F)o3)cc2C(=O)N1CC(F)F [Example 54b]; 75
N#Cc1ccccc1Cn1ccnc1-c1cc(-c2nnc(C(F)F)o2)ccn1 [Example 79a]; 99
O=C1c2cc(-c3nnc(C(F)F)o3)ccc2CN1NCc1cnn(C2CC2)c1; 97
O=C1c2cc(-c3nnc(C(F)F)o3)ccc2CN1NCc1ccc(F)cc1; 99
CN1C(=O)c2cc(-c3nnc(C(F)F)o3)ccc2OC1(C)c1ccccc1Cl (stereo not shown) [Example 16b]; 98
O=C1c2cc(-c3nnc(C(F)F)o3)ccc2CN1Nc1ccc(F)cc1 [Example 30c]; 92
CN(Cc1cc(Cl)ccc1O)N1Cc2ccc(-c3nnc(C(F)F)o3)cc2C1=O [Example 42c]; 98
COCCOC(=O)N(Cc1ccc(F)cc1)N1Cc2ccc(-c3nnc(C(F)F)o3)cc2C1=O [Example 11c]; 99
CC(=O)N1CCC(Cn2ccnc2-c2cc(F)cc(-c3nnc(C(F)F)o3)c2)CC1 [Example 31a]; 98
COc1ccccc1Cn1ccnc1-c1cc(-c2nnc(C(F)F)o2)ccn1 [Example 84a]; 100
CCN1C(=O)c2cc(-c3nnc(C(F)F)o3)ccc2OC1(C)c1ccc(F)cc1 (stereo not shown) [Example 45b]; 100
O=C1c2cc(-c3nnc(C(F)F)o3)ccc2CN1Nc1ccc(F)cn1 [Example 39c]; 88
Fc1cc(-c2nnc(C(F)F)o2)cc(-c2nccn2Cc2ccc(F)c(Cl)c2)c1 [Example 68a]; 99
C[C@]1(c2ccc(F)cc2)Cc2ncc(-c3nnc(C(F)F)o3)cc2C(=O)N1CC(F)F [Example 55b]; 100
COc1cccc(Cn2ccnc2-c2cc(-c3nnc(C(F)F)o3)ccn2)c1 [Example 81a]; 101
O=C1NN(c2ccc(F)c(F)c2)Cc2ncc(-c3nnc(C(F)F)o3)cc21 [Example 34b]; 100
Fc1cccc(Cc2cncnc2-c2cc(-c3nnc(C(F)F)o3)ccn2)c1 [Example 90a]; 98
CN1C(=O)c2cc(-c3nnc(C(F)F)o3)ccc2OC1(C)c1ccc(F)cc1 (single isomer, unassigned; isomer 1) [Example 8b]; 100
CN1C(=O)c2cc(-c3nnc(C(F)F)o3)ccc2OC1c1ccc(F)cc1 (stereo not shown) [Example 44b]; 100
Cc1cccc(Cn2ccnc2-c2cc(-c3nnc(C(F)F)o3)ccn2)c1 [Example 83a]; 100
CCS(=O)(=O)N(Cc1ccc(F)cc1)N1Cc2ccc(-c3nnc(C(F)F)o3)cc2C1=O [Example 27c]; 99

====

measuredOn: HDAC6 enzyme (Homo sapiens, UniProt Q9UBN7)
Construct: prepared by transducing full length HDAC6 gene into Sf-9 insect cells; GST; purchased SignalChem; host or cells: Sf-9 insect cells
measurementNotes: HDAC6 enzyme inhibitory assay (HDAC-Glo I/II Assay kit, luminescence)
Assay type: biochemical
runParameters: 10 μM test compound; wells without enzyme = 100% inhibition; read-out: HDAC6 inhibitory rate (%) (10 μM)
reportedMetric: inhibition at 10 µM (%)

Sample answers from the record:
Fc1cc(-c2nnc(C(F)F)o2)cc(-c2nccn2Cc2cccc(Cl)c2)c1 [Example 21a]; 93
CN(Cc1ccccc1C(F)F)N1Cc2ccc(-c3nnc(C(F)F)o3)cc2C1=O [Example 65c]; 101
O=C1c2cc(-c3nnc(C(F)F)o3)ccc2CN1NC1CCC(F)(F)CC1 [Example 35c]; 93
CN(Cc1ccc(F)cc1)N1Cc2ccc(-c3nnc(C(F)F)o3)cc2C1=O [Example 28c]; 99
Fc1cccc(Cn2ncnc2-c2cc(-c3nnc(C(F)F)o3)ccn2)c1 [Example 85a]; 101
CC(C)(C)OC(=O)N(Cc1ccccc1)N1Cc2ccc(-c3nnc(C(F)F)o3)cc2C1=O; 100
O=C1c2cc(-c3nnc(C(F)F)o3)ccc2CN1N(CCC1CCOCC1)Cc1ccc(F)cc1 [Example 21c]; 99
CN1C(=O)c2cc(-c3nnc(C(F)F)o3)ccc2CC1c1ccc(F)cc1 (centres unmarked) [Example 33b]; 100

1. N#Cc1cc(Cn2ccnc2-c2cc(-c3nnc(C(F)F)o3)ccn2)ccc1F
2. CN1C(=O)c2cc(-c3nnc(C(F)F)o3)ccc2C[C@@]1(C)c1ccc(F)c(F)c1 [Example 49b]
Ask: Higher inhibition at 10 µM: 1 or 2 ? Kindly state the label of the option you pick.
Reply: 1
(1: 100%, 2: 42%)

====

measuredOn: HDAC6 enzyme (Homo sapiens, UniProt Q9UBN7)
Construct: prepared by transducing full length HDAC6 gene into Sf-9 insect cells; GST; purchased SignalChem; host or cells: Sf-9 insect cells
Sequence (Q9UBN7 1-1215): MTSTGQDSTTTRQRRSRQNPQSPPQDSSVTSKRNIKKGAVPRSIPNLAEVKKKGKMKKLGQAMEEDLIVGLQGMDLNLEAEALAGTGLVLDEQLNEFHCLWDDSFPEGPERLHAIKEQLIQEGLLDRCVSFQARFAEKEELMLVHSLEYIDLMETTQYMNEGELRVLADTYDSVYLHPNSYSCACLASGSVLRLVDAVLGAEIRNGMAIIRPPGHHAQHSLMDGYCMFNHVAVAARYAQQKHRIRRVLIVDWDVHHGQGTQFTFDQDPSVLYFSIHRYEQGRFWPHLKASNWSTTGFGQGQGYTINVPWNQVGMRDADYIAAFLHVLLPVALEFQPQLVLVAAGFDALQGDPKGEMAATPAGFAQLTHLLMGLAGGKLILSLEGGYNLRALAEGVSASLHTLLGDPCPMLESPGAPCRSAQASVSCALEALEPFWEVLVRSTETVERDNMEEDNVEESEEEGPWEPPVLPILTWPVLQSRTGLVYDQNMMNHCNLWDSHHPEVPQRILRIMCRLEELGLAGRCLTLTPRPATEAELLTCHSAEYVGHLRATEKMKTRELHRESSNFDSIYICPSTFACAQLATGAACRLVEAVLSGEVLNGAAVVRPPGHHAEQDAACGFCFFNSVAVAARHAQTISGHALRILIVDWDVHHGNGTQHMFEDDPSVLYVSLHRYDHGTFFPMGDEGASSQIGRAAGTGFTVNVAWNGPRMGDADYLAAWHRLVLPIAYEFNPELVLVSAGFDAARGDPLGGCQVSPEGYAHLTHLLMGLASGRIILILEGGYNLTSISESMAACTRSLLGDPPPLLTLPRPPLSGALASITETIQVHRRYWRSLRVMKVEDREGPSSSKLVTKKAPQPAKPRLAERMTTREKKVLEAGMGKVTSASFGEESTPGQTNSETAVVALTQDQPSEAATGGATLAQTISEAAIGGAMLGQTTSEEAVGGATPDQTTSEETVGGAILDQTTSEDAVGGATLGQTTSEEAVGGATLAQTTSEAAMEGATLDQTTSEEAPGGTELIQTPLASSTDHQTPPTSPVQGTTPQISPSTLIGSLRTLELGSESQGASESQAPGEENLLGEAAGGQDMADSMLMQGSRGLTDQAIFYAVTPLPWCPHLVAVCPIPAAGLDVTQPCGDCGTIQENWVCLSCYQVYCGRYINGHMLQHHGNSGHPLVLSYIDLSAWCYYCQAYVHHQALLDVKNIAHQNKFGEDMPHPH
measurementNotes: HDAC6 enzyme inhibitory assay (HDAC-Glo I/II Assay kit, luminescence)
Format: biochemical
runParameters: 10 μM test compound; wells without enzyme = 100% inhibition; read-out: HDAC6 inhibitory rate (%) (10 μM)
reportedMetric: inhibition at 10 µM (%)

CCOC(=O)CN(C)N1Cc2ccc(-c3nnc(C(F)F)o3)cc2C1=O [Example 46c]; 99
COCCOc1ccc(CN(C)N2Cc3ccc(-c4nnc(C(F)F)o4)cc3C2=O)cc1 [Example 55c]; 101
O=C1c2cc(-c3nnc(C(F)F)o3)ccc2CN1Nc1c(F)c(F)c(F)c(F)c1F [Example 32c]; 95
